# Target: pSTAT3 (pY705-STAT3) (Homo sapiens, UniProt P40763)
# Construct: host or cells: cryopreserved PBMC
# Sequence (P40763 whole entry): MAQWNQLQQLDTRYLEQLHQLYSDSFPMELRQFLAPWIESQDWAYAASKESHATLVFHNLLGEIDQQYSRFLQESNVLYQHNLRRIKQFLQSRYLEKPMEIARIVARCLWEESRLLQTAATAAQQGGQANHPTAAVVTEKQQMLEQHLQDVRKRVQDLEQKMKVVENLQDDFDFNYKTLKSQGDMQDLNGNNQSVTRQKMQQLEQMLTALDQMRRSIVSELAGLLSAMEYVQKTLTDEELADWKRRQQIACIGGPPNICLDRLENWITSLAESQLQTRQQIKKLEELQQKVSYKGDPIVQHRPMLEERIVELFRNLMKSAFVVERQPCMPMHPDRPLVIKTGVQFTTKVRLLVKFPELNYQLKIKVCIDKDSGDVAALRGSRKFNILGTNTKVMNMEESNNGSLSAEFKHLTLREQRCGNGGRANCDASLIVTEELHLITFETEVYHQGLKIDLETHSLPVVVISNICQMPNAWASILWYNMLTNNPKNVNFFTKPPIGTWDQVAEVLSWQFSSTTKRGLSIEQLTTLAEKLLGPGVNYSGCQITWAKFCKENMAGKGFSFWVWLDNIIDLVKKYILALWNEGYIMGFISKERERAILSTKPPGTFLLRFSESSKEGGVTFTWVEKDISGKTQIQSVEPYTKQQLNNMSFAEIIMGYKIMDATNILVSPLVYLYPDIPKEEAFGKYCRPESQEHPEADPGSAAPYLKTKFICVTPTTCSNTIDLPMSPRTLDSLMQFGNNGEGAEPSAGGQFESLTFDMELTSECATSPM
# Experiment description: MSD-pSTAT-PBMC Assay (pSTAT3, IL-6 stimulated)
# Type: cell-based
# Settings: PBMC, compound 3 hrs, then 10 ng/mL IL-6 for 10 min; MSD pY705-STAT3; read-out: pSTAT3
# Description: Cryopreserved Peripheral Blood Mononuclear Cells (PBMC) are from AllCells. Recombinant Human IL-4 and IL-6 are from Peprotech. […] Cryopreserved PBMCs were thawed out and allowed to recover overnight in IMDM+10% heat-inactivated FBS prior to plating 50,000 (STAT3) or 25,000 (STAT6) cells per well in 96-well U-bottom tissue culture plates. […] Assay plates were then washed and 150 μL of 1× Read Buffer-T (MSD) was added to each well prior to reading on an SQ120 MSD Plate Reader. […]
pIC50: −log10 of the molar value.
Recorded endpoint: pIC50

Give the observed pIC50 of O=C(OCOP(=O)(OCOC(=O)OC1CCOCC1)C(F)(F)c1ccc2sc(C(=O)N[C@H]3C[C@H]4C[C@H]4C[C@H]4CC[C@@H](C(=O)N5CC(c6cccnc6)C5)N4C3=O)cc2c1)OC1CCOCC1 for pSTAT3 (pY705-STAT3) (Homo sapiens, UniProt P40763).
> 7.00

State the measured pIC50 (pSTAT3 (pY705-STAT3) (Homo sapiens, UniProt P40763)) of CC(C)(C)C(=O)SCCOP(=O)(OCCSC(=O)C(C)(C)C)C(F)(F)c1ccc2sc(C(=O)N[C@H]3C[C@H]4C[C@H]4C[C@H]4CC[C@@H](C(=O)N5CC(c6c[nH]cn6)C5)N4C3=O)cc2c1
> 7.00

Fetch value of pIC50 on pSTAT3 (pY705-STAT3) (Homo sapiens, UniProt P40763) for CCCOC(=O)C(C)NP(=O)(Oc1ccccc1)C(F)c1ccc2sc(C(=O)N[C@H]3C[C@@H]4C[C@@H]4C[C@H]4CC[C@@H](C(=O)N5C[C@H]6[C@@H]5CCN6c5cccnc5)N4C3=O)cc2c1 (stereo in doubt) .
> 7.00

Give pIC50 for CC(C)CC(=O)SCCOP(=O)(OCOC(=O)OC(C)C)C(F)(F)c1ccc2sc(C(=O)N[C@H]3C[C@@H]4C[C@@H]4C[C@H]4CC[C@@H](C(=O)N5CC(C(=O)N6CCOCC6)C5)N4C3=O)cc2c1 (stereo partly drawn) tested on pSTAT3 (pY705-STAT3) (Homo sapiens, UniProt P40763).
> 7.00
